Please go through the items and note down their GI50.
System: RXF 393
Assay comment: NCI tumour cell line growth inhibition, 48 h
Activity calls are given as the source filed them. Cut-off read from the data, not from the text of the source: active = GI50 up to about 1.1 µM and inactive = higher.

Entry under review: O=C(O)c1c(-c2c3ccc(=O)cc-3oc3cc(O)ccc23)cc2ccccc2c1-c1ccccc1 . Reported GI50?
> 100 µM (inactive)

Entry under review: CC(SC(=S)N1CCOCC1)C(=O)Nc1nnc(-c2ccccc2)o1 (stereo not given) . Reported GI50?
> 100 µM (inactive)

Entry under review: CCOC(=O)c1cc(Sc2ccc(N)c(C(=O)OCC)c2)ccc1N . Reported GI50?
11.5 µM (inactive)

Entry under review: N#CC12CC(C=O)=C(N)C1(C#N)CC(C=O)=C2N (stereo not given) . Reported GI50?
41.9 µM (inactive)

Entry under review: N#CC(C#N)=C/C=C(\Sc1c(Cl)c(Cl)nc(Cl)c1Cl)c1ccc(Cl)cc1 . Reported GI50?
18.5 µM (inactive)
